- Test system: CCRF-CEM leukemia
- ASSAY_PROCEDURE: NCI tumour cell line growth inhibition, 48 h
Items are presented alongside their recorded TGI.

C/C(CC(=O)CCCC(=O)Nc1ccc(Cl)cc1Cl)=N/NC(=O)CC#N | > 100 µM

Attention now shifts to the item below.
Query block: Query: TGI; subject: C[C@]12CC[C@@H]3c4ccc(OC(=O)c5ccccc5)cc4CC[C@H]3[C@@H]1CCC2OC(=O)c1cccc2c(=O)c3ccccc3[nH]c12 (stereo not given in full)
Result block: > 100 µM

###

- System: ACHN renal
- ASSAY_PROCEDURE: NCI tumour cell line growth inhibition, 48 h; in the data active = GI50 below about 0.43 µM; inactive = the rest
Mark one answer only. Choices: active, inactive

Past entries and their recorded results:
COc1cc2[nH]c(C(=O)c3cc(OC)c(OC)c(OC)c3)c(N)c2cc1C#CCO | inactive
COc1cccc(-c2nn(-c3ccccc3)cc2-c2ccnc(NCCNS(=O)(=O)c3ccc(C(F)(F)F)cc3)c2)c1 | inactive
Nc1nc(N)c2nc(CNc3ccc(C(=O)CC(CCC(=O)O)C(=O)O)cc3)cnc2n1 (centres undefined) | active
CCCCCCCCN(CCCCCCCC)C(=N)c1ccnc2ccccc12 | inactive
CCCCCCN(CCCCCC)C(=N)c1ccnc2ccccc12 | inactive
CCCCCCCCCCCCCOC(=O)c1c(C)[nH]c(/C=C2\N=C(c3ccc[nH]3)C=C2OC)c1C | active
Cc1cc(NC(=O)c2ccc(NS(=O)(=O)CCO)cc2N2CCC3(CC2)CC3)nc(N2CCC(F)(F)CC2)n1 | inactive
O=c1oc2ccc(Cl)cc2c(=O)n1-c1ccc(Cl)cc1F | inactive

Please look at the following molecule next.
Query block: How did this test come out for C[C@H]1CCC/C=C/[C@@H]2C[C@H](O)C[C@H]2[C@H](O)[C@H](S(=O)c2ccc(O)cc2)CC(=O)O1 (some centres undefined) ?
Result block: active

###

- System: SK-MEL-5 melanoma
- ASSAY_PROCEDURE: NCI tumour cell line growth inhibition, 48 h
MEASUREMENT_TYPE: TGI

Worked examples, 9 molecules total:
CCOC(=O)[C@H](CSSc1ncnc2cc[nH]c12)NC(=O)[C@@H](C)c1ccc2cc(OC)ccc2c1 | > 32.5 µM
O=C(O)C(Cc1cccs1)NC(=O)C(F)(F)F (stereo not given) | > 100 µM
O=C(NNC(=S)Nc1ccccc1)C12CC3CC(CC(C3)C1)C2 | 42.6 µM
Cc1cc(Cl)nc(NC(=O)CSc2ccc(Cl)cc2)n1 | > 100 µM
CN1CCN(C(=O)c2ccc(NC(=O)Nc3ccc(N(C)c4ccnc(Nc5ccc(CS(C)(=O)=O)cc5)n4)cc3)cc2)CC1 | > 25 µM
N=c1ccn2c(n1)OC1C(OP(=O)(O)O)C(CO)OC12 (stereo not given) | > 100 µM
COc1ccc(C(=S)c2cc(OC)c(OC)c(OC)c2)cc1OC(=O)CCl | 0.0616 µM
Cc1c(O)c(OC2OC(CO)C(O)C(O)C2O)cc2c1CC[C@@H]1C2(C)C(=O)C[C@]2(C)[C@@H]([C@@](C)(O)C(O)/C=C/C(C)(C)O)[C@H](O)C[C@@]12C (stereo not given in full) | > 100 µM
CCCSc1cc(Cl)c(C)cc1S(=O)(=O)n1cc[nH]c1=O | > 100 µM

Attention now shifts to the item below.
Query block: Query: TGI; subject: Cc1nc(Nc2nnc(-c3cc([N+](=O)[O-])cc([N+](=O)[O-])c3C)o2)sc1C(=O)CC(=O)Cc1nc2ccc(Cl)cc2[nH]c1=O
Result block: > 100 µM

###

- System: NCI/ADR-RES ovarian
- ASSAY_PROCEDURE: NCI tumour cell line growth inhibition, 48 h
MEASUREMENT_TYPE: TGI

Worked examples, 3 molecules total:
COc1ccc(C2Oc3c(cccc3OC)C=C2[N+](=O)[O-])cc1OC (stereo not drawn) | 53.4 µM
O=C1c2ccccc2C(=O)c2c(OCC3CO3)ccc(OCC3CO3)c21 (stereo not drawn) | 8.73 µM
C#C[C@@]1(O)[C@@H](CO)O[C@@H](n2cc(Cl)c3c(N)ncnc32)[C@@H]1O | 0.777 µM

Query block: Query for NCI/ADR-RES ovarian: what TGI does the record show for CO/C(=N/N1CC1C(F)(F)F)c1ccncc1 (stereo not drawn) ?
Result block: > 100 µM

Query block: Query for NCI/ADR-RES ovarian: what TGI does the record show for CC1=C(C)SC(=C2Sc3c(n(C)c(=O)[nH]c3=O)S2)S1 ?
Result block: > 100 µM

Query block: Query for NCI/ADR-RES ovarian: what TGI does the record show for Cc1ccc(SCC(OCn2cnc3c(N)ncnc32)[C@H](C)F)cc1 (stereo partly drawn) ?
Result block: > 100 µM

Query block: Query for NCI/ADR-RES ovarian: what TGI does the record show for Cc1[nH]c2c(C)ccc(C)c2c1CC(=O)O ?
Result block: > 100 µM

Query block: Query for NCI/ADR-RES ovarian: what TGI does the record show for Cc1cc(N(CCOS(C)(=O)=O)CCOS(C)(=O)=O)ccc1C=Nc1ccc(-c2csc(-c3ccccc3)n2)c(Cl)c1 ?
Result block: 71.5 µM

Query block: Query for NCI/ADR-RES ovarian: what TGI does the record show for O=C(O)C(=O)Cc1ccc2c(c1)OCO2 ?
Result block: > 100 µM

Query block: Query for NCI/ADR-RES ovarian: what TGI does the record show for [N-]=[N+]=NC1(N=[N+]=[N-])C(=O)NN=C(c2ccccc2)C1=O (stereo not drawn) ?
Result block: > 100 µM

###

Items are presented alongside their recorded TGI.
- System: DU-145 prostate
- ASSAY_PROCEDURE: NCI tumour cell line growth inhibition, 48 h

Worked examples, 5 compounds total:
Cc1c(O)c(OC2OC(CO)C(O)C(O)C2O)cc2c1CC[C@@H]1C2(C)C(=O)C[C@]2(C)[C@@H]([C@@](C)(O)C(O)/C=C/C(C)(C)O)[C@H](O)C[C@@]12C (some centres undefined) | > 100 µM
NCCCNc1ccc2c(c1)[n+]([O-])c1ccccc1[n+]2[O-] | 70.8 µM
COC(=O)c1cccc(NC(=O)Nc2ccc3oc(=O)c4ccccc4c3c2)c1 | > 100 µM
C=C(Cl)C(C)(Cl)CCC(Cl)C(C)(C)Cl (centres undefined) | > 100 µM
O=C(OCc1ccccc1)N1CCNCCNCC1 | > 100 µM

Query block: Query for DU-145 prostate: what TGI does the record show for CS(=O)(=O)CCNCc1ccc(-c2ccc3ncnc(Nc4ccc(OCc5ccccc5)c(C(F)(F)F)c4)c3c2)o1 ?
Result block: > 25 µM

Query block: Query for DU-145 prostate: what TGI does the record show for Cc1cc(Cl)ccc1Nc1sc(C(=O)c2cc3cc(Cl)ccc3o2)c(N)c1C#N ?
Result block: > 100 µM

Query block: Query for DU-145 prostate: what TGI does the record show for O=S(=O)(O)c1cc(S(=O)(=O)O)c2c(N=Nc3cccc4ccccc34)c(O)ccc2c1 ?
Result block: > 100 µM

Query block: Query for DU-145 prostate: what TGI does the record show for O=S(=O)(NCCNc1cc(-c2cn(-c3ccccc3)nc2-c2cccc(O)c2)ccn1)c1ccc(C(F)(F)F)cc1 ?
Result block: 15.9 µM

###

Items are presented alongside their recorded TGI.
- Test system: SN12C renal
- ASSAY_PROCEDURE: NCI tumour cell line growth inhibition, 48 h

Query block: Query: TGI; subject: C/C(=C\c1ccn(-c2ccc(N)c(C(F)(F)F)c2)n1)[C@@H]1C[C@@H]2O[C@]2(C)CCC[C@H](C)[C@H](O)[C@@H](C)C(=O)C(C)(C)[C@@H](O)CC(=O)O1
Result block: > 32.5 µM

###

- System: HCT-15 colon
- ASSAY_PROCEDURE: NCI tumour cell line growth inhibition, 48 h
MEASUREMENT_TYPE: TGI

Worked examples, 5 compounds total:
Nc1nc(N)c2nc(CNc3ccc(C(=O)CC(CCC(=O)O)C(=O)O)cc3)cnc2n1 (centres undefined) | > 100 µM
CC(=O)O[C@H](C[C@H](C(C)C)N(C)C(=O)[C@@H](NC(=O)[C@H]1CCCCN1C)C(C)C)c1nc(C(=O)N[C@@H](Cc2ccccc2)C[C@H](C)C(=O)O)c(C)s1 | > 25 µM
COc1cc2c(c(OC)c1OC)-c1ccc(OC)c(=O)cc1[C@@H](NC(=O)CCl)CC2 | > 100 µM
O=C1CC2[C@@H](N3CCCC3)CCC(N1Cc1ccccc1)C2(O)O (some centres undefined) | > 100 µM
COc1cccc(/C=C(/C(=O)O)c2cc(OC)c(OC)c(OC)c2)c1 | > 100 µM

Query block: Query: TGI; subject: CCOC(=O)c1sc2nc(SC)nc(Nc3ccc4c(c3)OCCCO4)c2c1N
Result block: > 100 µM

Query block: Query: TGI; subject: CC1CC(N)=Nc2ccccc2N1Cc1ccccc1 (centres undefined)
Result block: 29.9 µM

Query block: Query: TGI; subject: CCCCCCNC(=O)c1cc(NCc2cc(OC)ccc2OC)ccc1O
Result block: 57.3 µM

Query block: Query: TGI; subject: CC(=O)C1(c2ccccc2)CCN(Cn2sc3nc(C)cc(C)c3c2=O)CC1
Result block: 72.8 µM
